Target: plasma purified human complement protein C3 (human) (UniProt P01024)
Sequence (P01024 23-667, chain 1 of 2): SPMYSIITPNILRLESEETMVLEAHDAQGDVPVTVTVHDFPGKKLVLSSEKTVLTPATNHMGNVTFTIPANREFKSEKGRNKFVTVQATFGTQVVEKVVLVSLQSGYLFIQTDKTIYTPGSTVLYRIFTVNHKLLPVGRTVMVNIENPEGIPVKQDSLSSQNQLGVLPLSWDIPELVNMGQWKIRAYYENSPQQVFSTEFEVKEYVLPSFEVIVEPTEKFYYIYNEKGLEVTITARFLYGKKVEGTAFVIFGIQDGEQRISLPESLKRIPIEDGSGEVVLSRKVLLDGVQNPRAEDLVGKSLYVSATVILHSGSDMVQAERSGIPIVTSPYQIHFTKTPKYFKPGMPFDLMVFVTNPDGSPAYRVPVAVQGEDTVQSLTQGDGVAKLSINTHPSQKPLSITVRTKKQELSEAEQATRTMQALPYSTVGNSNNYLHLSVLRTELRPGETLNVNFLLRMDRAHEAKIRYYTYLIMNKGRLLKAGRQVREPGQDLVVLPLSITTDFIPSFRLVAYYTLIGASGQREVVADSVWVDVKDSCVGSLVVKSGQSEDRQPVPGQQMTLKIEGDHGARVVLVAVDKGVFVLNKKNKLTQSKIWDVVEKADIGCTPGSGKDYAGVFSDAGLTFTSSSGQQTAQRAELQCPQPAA
Sequence (P01024 672-1663, chain 2 of 2): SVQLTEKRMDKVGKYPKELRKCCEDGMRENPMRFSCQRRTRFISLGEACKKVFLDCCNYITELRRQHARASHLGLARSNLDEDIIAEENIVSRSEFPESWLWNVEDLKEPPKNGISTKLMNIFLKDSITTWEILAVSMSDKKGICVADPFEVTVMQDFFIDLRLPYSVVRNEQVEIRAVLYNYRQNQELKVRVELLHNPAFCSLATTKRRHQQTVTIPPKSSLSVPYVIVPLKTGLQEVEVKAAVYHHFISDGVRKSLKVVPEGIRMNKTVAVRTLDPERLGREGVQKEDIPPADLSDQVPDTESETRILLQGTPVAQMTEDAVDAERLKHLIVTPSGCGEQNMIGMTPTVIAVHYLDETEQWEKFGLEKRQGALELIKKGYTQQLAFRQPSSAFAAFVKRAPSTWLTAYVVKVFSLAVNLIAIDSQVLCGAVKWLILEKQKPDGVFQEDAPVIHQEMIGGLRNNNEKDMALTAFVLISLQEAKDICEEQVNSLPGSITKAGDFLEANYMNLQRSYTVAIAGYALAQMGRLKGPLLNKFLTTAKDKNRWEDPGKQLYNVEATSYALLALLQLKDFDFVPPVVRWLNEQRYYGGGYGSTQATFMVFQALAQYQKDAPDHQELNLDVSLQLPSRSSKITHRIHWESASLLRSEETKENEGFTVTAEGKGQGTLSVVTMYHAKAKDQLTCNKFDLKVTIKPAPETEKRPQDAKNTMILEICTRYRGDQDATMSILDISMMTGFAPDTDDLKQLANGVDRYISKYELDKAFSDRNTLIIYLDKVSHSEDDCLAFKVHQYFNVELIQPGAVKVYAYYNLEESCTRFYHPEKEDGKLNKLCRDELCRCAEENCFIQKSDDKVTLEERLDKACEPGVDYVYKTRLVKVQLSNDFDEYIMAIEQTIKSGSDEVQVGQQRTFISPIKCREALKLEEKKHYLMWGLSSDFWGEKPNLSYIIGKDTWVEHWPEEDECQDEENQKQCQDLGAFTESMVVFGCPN
Assay: cell-based or functional assay
Entries whose EC50 of hC3 cleavage is below 200 nM take yes (1); entries at or above 200 nM take no (0).

>  <BINDER>
MTSP-1 I41R/ins97aV/F97D/T98P/F99L/C122S/G151N/Q192G (enzyme) VVGGTDADEGEWPWQVSLHALGQGHRCGASLISPNWLVSAAHCYIDDRGFRYSDPTQWTAFLGLHDQSQRSAPGVQERRLKRIISHPFFNDDVPLDYDIALLELEKPAEYSSMVRPISLPDASHVFPAGKAIWVTGWGHTQYGGTNALILQKGEIRVINQTTCENLLPQQITPRMMCVGFLSGGVDSCGGDSGGPLSSVEADGRIFQAGVVSWGDGCAQRNKPGVYTRLPLFRDWIKENTGV

>  <DISCRETE_LABEL>
no (0)

$$$$
>  <BINDER>
MTSP-1 protease domain with C122S (enzyme) VVGGTDADEGEWPWQVSLHALGQGHICGASLISPNWLVSAAHCYIDDRGFRYSDPTQWTAFLGLHDQSQRSAPGVQERRLKRIISHPFFNDFTFDYDIALLELEKPAEYSSMVRPISLPDASHVFPAGKAIWVTGWGHTQYGGTGALILQKGEIRVINQTTCENLLPQQITPRMMCVGFLSGGVDSCQGDSGGPLSSVEADGRIFQAGVVSWGDGCAQRNKPGVYTRLPLFRDWIKENTGV

>  <DISCRETE_LABEL>
yes (1)

$$$$
>  <BINDER>
MTSP-1 H40R/I41H/F97D/F99L/C122S/G151D/Q175M/Q192G/D217V (enzyme) VVGGTDADEGEWPWQVSLHALGQGRHCGASLISPNWLVSAAHCYIDDRGFRYSDPTQWTAFLGLHDQSQRSAPGVQERRLKRIISHPFFNDDTLDYDIALLELEKPAEYSSMVRPISLPDASHVFPAGKAIWVTGWGHTQYGGTDALILQKGEIRVINQTTCENLLPQMITPRMMCVGFLSGGVDSCGGDSGGPLSSVEADGRIFQAGVVSWGVGCAQRNKPGVYTRLPLFRDWIKENTGV

>  <DISCRETE_LABEL>
yes (1)

$$$$
>  <BINDER>
MTSP-1 Q38E/I41S/D60bH/F60eI/ins97aE/F97T/T98G/F99L/C122S/G151N/Q175L/Q192V (enzyme) VVGGTDADEGEWPWQVSLHALGEGHSCGASLISPNWLVSAAHCYIDHRGIRYSDPTQWTAFLGLHDQSQRSAPGVQERRLKRIISHPFFNDTEGLDYDIALLELEKPAEYSSMVRPISLPDASHVFPAGKAIWVTGWGHTQYGGTNALILQKGEIRVINQTTCENLLPQLITPRMMCVGFLSGGVDSCVGDSGGPLSSVEADGRIFQAGVVSWGDGCAQRNKPGVYTRLPLFRDWIKENTGV

>  <DISCRETE_LABEL>
yes (1)

$$$$
>  <BINDER>
MTSP-1 I41R/ins97aE/F97T/T98G/F99L/C122S/G151N/Q175T/Q192D (enzyme) VVGGTDADEGEWPWQVSLHALGQGHRCGASLISPNWLVSAAHCYIDDRGFRYSDPTQWTAFLGLHDQSQRSAPGVQERRLKRIISHPFFNDTEGLDYDIALLELEKPAEYSSMVRPISLPDASHVFPAGKAIWVTGWGHTQYGGTNALILQKGEIRVINQTTCENLLPQTITPRMMCVGFLSGGVDSCDGDSGGPLSSVEADGRIFQAGVVSWGDGCAQRNKPGVYTRLPLFRDWIKENTGV

>  <DISCRETE_LABEL>
no (0)

$$$$
>  <BINDER>
MTSP-1 H40R/I41H/F97E/C122S (enzyme) VVGGTDADEGEWPWQVSLHALGQGRHCGASLISPNWLVSAAHCYIDDRGFRYSDPTQWTAFLGLHDQSQRSAPGVQERRLKRIISHPFFNDETFDYDIALLELEKPAEYSSMVRPISLPDASHVFPAGKAIWVTGWGHTQYGGTGALILQKGEIRVINQTTCENLLPQQITPRMMCVGFLSGGVDSCQGDSGGPLSSVEADGRIFQAGVVSWGDGCAQRNKPGVYTRLPLFRDWIKENTGV

>  <DISCRETE_LABEL>
yes (1)

$$$$
